FYI, the data here is from ChEMBL document CHEMBL1128777.

Molecular target: Matrix metalloproteinase-9 (Homo sapiens)
Test: Inhibition of human recombinant 92 kDa gelatinase MMP-9 at 10 uM
Assign inhibition to each entry below.
Answers are plain numbers, in %.

COMPOUND	inhibition [%]
COC1=C[C@]23C[C@H](C[C@H](c4cc5c(cc4Br)OCO5)[C@H]2C)OC3=C(Br)C1=O	0

// for each compound in input: emit inhibition
1. COc1cc2c(cc1O)O[C@@H](C[C@H](c1ccc3c(c1)OCO3)C(C)O)C2 (some centres undefined)
2. COC1=C[C@]23C[C@H](C[C@H](c4ccc5c(c4)OCO5)[C@H]2C)OC3=CC1=S
3. COc1cc2c(cc1SC(C)=O)O[C@@H](C[C@H](c1ccc3c(c1)OCO3)C(C)OC(C)=O)C2 (some centres undefined)
4. COC1=C[C@]23C[C@H](C[C@H](c4ccc5c(c4)OCO5)[C@H]2C)OC3=C(Br)C1=O
5. COc1cc2c(cc1S)O[C@@H](C[C@H](c1ccc3c(c1)OCO3)C(C)O)C2 (some centres undefined)
6. COC1=C[C@]23C[C@H](C[C@H](c4ccc5c(c4)OCO5)[C@H]2C)OC3=CC1=O

Reply:
1. 0
2. 0
3. 8
4. 22
5. 44
6. 0

For each of the compounds below, state inhibition.
1. CNC(=O)[C@H](Cc1c[nH]c2ccccc12)NC(=O)[C@@H](CC(=O)NO)CC(C)C
2. C=CCc1c(O)c(OC)cc2c1O[C@@H](C[C@H](c1ccc3c(c1)OCO3)C(C)O)C2 (some centres undefined)

Reply:
100
0

* * *

Molecular target: Stromelysin-1 (Homo sapiens, UniProt P08254)
Sequence (P08254 100-477 limits assumed): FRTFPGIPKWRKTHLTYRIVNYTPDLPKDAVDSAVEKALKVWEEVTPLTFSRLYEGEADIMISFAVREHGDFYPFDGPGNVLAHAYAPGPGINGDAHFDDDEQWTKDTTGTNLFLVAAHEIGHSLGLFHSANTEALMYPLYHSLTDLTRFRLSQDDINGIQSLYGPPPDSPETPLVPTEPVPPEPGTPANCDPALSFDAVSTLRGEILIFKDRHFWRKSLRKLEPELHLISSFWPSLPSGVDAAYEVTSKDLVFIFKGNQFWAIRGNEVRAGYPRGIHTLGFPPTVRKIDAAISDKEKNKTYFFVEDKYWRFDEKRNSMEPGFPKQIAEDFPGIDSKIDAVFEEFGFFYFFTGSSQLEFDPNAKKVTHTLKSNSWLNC
Assay: Inhibition of human recombinant matrix metalloprotease-3 (Stromelysin) at 10 uM
Parameter threshold = 40%. Response is Criterion met when inhibition meets or exceeds it, else Criterion not met.

Below, 3 compounds whose answers are already recorded.
COMPOUND	CATEGORY_LABEL
COC1=C[C@]23C[C@H](C[C@H](c4cc5c(cc4Br)OCO5)[C@H]2C)OC3=C(Br)C1=O	Criterion not met
COC1=C[C@]23C[C@H](C[C@H](c4ccc5c(c4)OCO5)[C@H]2C)OC3=CC1=S	Criterion met
COc1cc2c(cc1S)O[C@@H](C[C@H](c1ccc3c(c1)OCO3)C(C)O)C2 (some centres undefined)	Criterion met

Ask: Dear colleague, could you confirm whether COC1=C[C@]23C[C@H](C[C@H](c4ccc5c(c4)OCO5)[C@H]2C)OC3=CC1=O [FUTOENONE] has inhibition at or above 40%?
Reply: Criterion not met

Ask: # check: inhibition of "COC1=C[C@]23C[C@H](C[C@H](c4ccc5c(c4)OCO5)[C@H]2C)OC3=C(Br)C1=O" is greater than or equal to 40%
Reply: Criterion not met

* * *

Exercise: state measured inhibition for each of the compounds provided.
Biological target: Stromelysin-1 (Homo sapiens)
Assay: Inhibition of human recombinant matrix metalloprotease-3 (Stromelysin) at 10 uM
Give bare numbers, in %.

Consider the following illustrative entries.
COMPOUND	inhibition (%)
CNC(=O)[C@H](Cc1c[nH]c2ccccc12)NC(=O)[C@@H](CC(=O)NO)CC(C)C [ILOMASTAT]	100
C=CCc1c(O)c(OC)cc2c1O[C@@H](C[C@H](c1ccc3c(c1)OCO3)C(C)O)C2 (some centres undefined)	36
COc1cc2c(cc1SC(C)=O)O[C@@H](C[C@H](c1ccc3c(c1)OCO3)C(C)OC(C)=O)C2 (some centres undefined)	58

Ask: Dear colleague, I am looking for the recorded inhibition of the following compound: COc1cc2c(cc1O)O[C@@H](C[C@H](c1ccc3c(c1)OCO3)C(C)O)C2 (some centres undefined)
Reply: 34
